- Test system: Pseudomonas aeruginosa
- ASSAY: Antimicrobial activity against Pseudomonas aeruginosa GP62KT41 harboring oprD gene after 18 hrs by agar dilution method
- Type: functional
- MEASUREMENT CONDITIONS: GP62KT41, 18 h
PROPERTY LABEL: MIC (µg/mL)
// note: answer is a bare numeric in µg/mL

## Task Quick one: MIC for CC1COc2c(N3CCN(C)CC3)c(F)cc3c(=O)c(C(=O)O)cn1c23 (configuration not stated) [OFLOXACIN] ?
## Result 1.6

## Task // query MIC value for entry C[C@@H](O)[C@H]1C(=O)N2C(C(=O)O)=C(S[C@@H]3CN[C@H](CNS(N)(=O)=O)C3)[C@H](C)[C@H]12 [DORIPENEM]
## Result 0.8

## Task Need MIC of C[C@@H](O)[C@H]1C(=O)N2C(C(=O)O)=C(SCCNC=N)C[C@H]12 [IMIPENEM ANHYDROUS] , thanks.
## Result 12.5

## Task What value of measured MIC is listed for O=C(O)c1cn(C2CC2)c2cc(N3CCNCC3)c(F)cc2c1=O [CIPROFLOXACIN] ?
## Result 0.2

## Task Which MIC reading was recorded for the molecule CCN1CCN(C(=O)N[C@@H](C(=O)N[C@@H]2C(=O)N3[C@@H]2SC(C)(C)[C@@H]3C(=O)O)c2ccccc2)C(=O)C1=O [PIPERACILLIN] ?
## Result 100

## Task Can you share its MIC? I mean this molecule: CC(C)(O/N=C(\C(=O)N[C@@H]1C(=O)N2C(C(=O)[O-])=C(C[n+]3ccccc3)CS[C@H]12)c1csc(N)n1)C(=O)O [CEFTAZIDIME]
## Result 1.6

## Task Which measured MIC value corresponds to C[C@@H](O)[C@H]1C(=O)N2C(C(=O)O)=C(S[C@@H]3CN[C@H](C(=O)N(C)C)C3)[C@H](C)[C@H]12 [MEROPENEM] ?
## Result 3.1

These entries and their values trace back to ChEMBL document CHEMBL1275521.
